Hello, the source for this data is ChEMBL document CHEMBL4342426, in case you need it.

Assay: physchem
Settings: buffer, pH 7.4
Description: Lipophilicity, logD of compound at pH 7.4 by HPLC analysis
MEASURED_PARAMETER: logD
Lab note: jot down the number only; don't add units.

Ask: Any idea what its logD is? The compound is `O=C(CCc1nc2cccnc2n1CCO)Nc1ccccc1`
Result: 1.85

Ask: Any idea what its logD is? The compound is Cc1nc(C)c(C(=O)N2CCCC(c3cc4ncccc4[nH]3)C2)s1 (stereo unspecified)
Result: 2.3

Ask: Any idea what its logD is? The compound is O=C(c1cncnc1)N1CCCC(c2cc3ncccc3[nH]2)C1 (stereo unspecified)
Result: 1.24

Ask: Any idea what its logD is? The compound is Cn1nccc1C(=O)N1CCCC(c2cc3ncccc3[nH]2)C1 (stereo unspecified)
Result: 1.8

Ask: Any idea what its logD is? The compound is N#Cc1cnc2cc(C3CCCN(C(=O)c4cc(C(F)(F)F)no4)C3)[nH]c2c1 (stereo unspecified)
Result: 3.5

Ask: Any idea what its logD is? The compound is CC(C)c1cc(C(=O)N2CCCC(O)(c3cc4ncccc4[nH]3)C2)on1 (stereo unspecified)
Result: 2.26
